metric name: melting point

Cc1cc(C2=NN(c3nnc(CO)s3)[C@H](C)Cc3cc4c(cc32)OCO4)ccc1[N+](=O)[O-] [Example 140] ... 142 to 145 °C
CC(=O)Nc1ccc(C2=NN(C3=NCCS3)[C@@H](C)Cc3cc4c(cc32)OCO4)cc1 [Example 126] ... 148 to 154 °C
CC(=O)OCc1nnc(N2N=C(c3ccc(N)c(C)c3)c3cc4c(cc3C[C@H]2C)OCO4)s1 [Example 172] ... 204 to 206 °C
Cc1cc(C2=NN(c3nncs3)[C@H](C)Cc3cc4c(cc32)OCO4)ccc1N [Example 167] ... 143 to 148 °C

Return value of melting point for input Cc1nc(N2N=C(c3ccc(N)cc3)c3cc4c(cc3CC2C)OCO4)sc1C (racemic) [Example 65] , no commentary.
240 to 242 °C

Determine from records and report melting point for CC1Cc2ccc(Cl)cc2C(c2ccc(N)cc2)=NN1c1nncs1 (racemic) [Example 93]
125 to 128 °C

Please report the measured melting point for CCOC(=O)c1nnc(N2N=C(c3ccc(N)c(C)c3)c3cc4c(cc3C[C@H]2C)OCO4)s1 [Example 175]
135 to 140 °C

Supply reported melting point belonging to this compound: Cc1nnc(N2N=C(c3ccc(N)c(C)c3)c3cc4c(cc3CC2C)OCO4)s1 (racemic) [Example 95]
140 to 144 °C

Tell me its melting point given Cc1cc(C2=NN(c3nnc(C4CC4)s3)[C@H](C)Cc3cc4c(cc32)OCO4)ccc1[N+](=O)[O-] [Example 139] as the entry.
126 to 130 °C

Please indicate melting point recorded for Cc1nc(N2N=C(c3ccc(N)cc3)c3cc4c(cc3CC2C)OCO4)cs1 (racemic) [Example 110]
132 to 135 °C
